Data origin: ChEMBL document CHEMBL6134809

Provide the reported MIC of each item.
- Test system: Pseudomonas aeruginosa
- Test Protocol: Antibacterial activity against Pseudomonas aeruginosa FB assessed as bacterial growth inhibition by CLSI based broth microdilution method
- Assay type: functional
Numbers only, in µM.

Batch of 3 molecules: report MIC for each.
1. Cc1cc(=O)c(O)c(CNC(=O)c2cn(C3CC3)c3cc(N4CCNCC4)c(F)cc3c2=O)n1C
2. Cn1cc(O)c(=O)cc1CNC(=O)c1cn(C2CC2)c2cc(N3CCNCC3)c(F)cc2c1=O
3. Cn1cc(O)c(=O)cc1COC(=O)c1cn(C2CC2)c2cc(N3CCNCC3)c(F)cc2c1=O

68.5
8.31
2.13

---

- Tested on: Pseudomonas aeruginosa
- Test Protocol: Antibiofilm activity against Pseudomonas aeruginosa PAO1 assessed as […] biofilm biomass at 1/4 times MIC measured for 24 hrs by crystal violet staining
- Format: functional
Provide the recorded Activity for the entries that follow.
One number for each entry, in %.

>  <Molecular String>
Cc1cc(=O)c(O)c(CNC(=O)c2cn(C3CC3)c3cc(N4CCNCC4)c(F)cc3c2=O)n1C

>  <Activity [%]>
93.6

$$$$
>  <Molecular String>
Cn1cc(O)c(=O)cc1CNC(=O)c1cn(C2CC2)c2cc(N3CCNCC3)c(F)cc2c1=O

>  <Activity [%]>
88.5

$$$$
>  <Molecular String>
COC(=O)c1cn(C2CC2)c2cc(N3CCNCC3)c(F)cc2c1=O

>  <Activity [%]>
122.4

$$$$

Let's switch to this compound now.
Give measured Activity for Cn1cc(O)c(=O)cc1COC(=O)c1cn(C2CC2)c2cc(N3CCNCC3)c(F)cc2c1=O (Pseudomonas aeruginosa).
42.4

---

- Test Protocol: Toxicity in Caenorhabditis elegans infected with Pseudomonas aeruginosa PAO1 assessed as nematode survival at MIC incubated at 48 hrs relative to control
Test Readout: survival at 48 h
# number then unit; no other words

Assign survival at 48 h to the following record: Cn1cc(O)c(=O)cc1COC(=O)c1cn(C2CC2)c2cc(N3CCNCC3)c(F)cc2c1=O
50%

---

- Tested on: Staphylococcus aureus
- Test Protocol: Antibacterial activity against Staphylococcus aureus ATCC 25923 assessed as bacterial growth inhibition by CLSI based broth microdilution method
- Type: functional
Field: MIC. Provide a value for each of the compounds that follow.
One number for each entry, in µM.

Can you give me MIC for all of these, one by one?
1. Cn1cc(O)c(=O)cc1CNC(=O)c1cn(C2CC2)c2cc(N3CCNCC3)c(F)cc2c1=O
2. Cc1cc(=O)c(O)c(CNC(=O)c2cn(C3CC3)c3cc(N4CCNCC4)c(F)cc3c2=O)n1C
3. Cn1cc(O)c(=O)cc1COC(=O)c1cn(C2CC2)c2cc(N3CCNCC3)c(F)cc2c1=O

1. 16.6
2. 34.2
3. 4.27
